Target: T1, ZFP SBS#1088 (synthetic, UniProt P08047)
T1 chain: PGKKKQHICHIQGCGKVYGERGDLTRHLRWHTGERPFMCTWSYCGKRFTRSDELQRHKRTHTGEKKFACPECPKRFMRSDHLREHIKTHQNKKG
Assay: EMSA
Settings: tags: MBP fusion
Quantity Kind: pKd
Scale note: pKd = -log10(concentration in M).

Ask: Given the entry CGGGCGGCC (dsDNA) DNA 1: CGGGCGGCC DNA 2: GGCCGCCCG , report its measured pKd.
Reply: 9.04
